# Experiment: Plasma pharmacokinetics after a single subcutaneous dose in healthy volunteers
# Format: in vivo, human
# Condition Parameters: male, human, plasma, sc, 300 ug
*1 amine or outer side, *2 acyl side, *3 side chain or, on linkers, in order; H or OH if unused. Where a SMILES comes first, the peptide text is derived from it. Side-chain parts run from the residue outwards. [ ]: non-standard residue; d: D form. The star is where a group is joined. Ethylenediamine = C(CN[*:2])N[*:1]; Hyp = O=C(O)[C@@H]1C[C@@H](O)CN1; Phg = N[C@H](C(=O)O)c1ccccc1; CO = O=C([*:1])[*:2]; Bn = c1ccc(C*)cc1
Endpoint Name: Cmax (ng/mL)
Value expressed in ng/mL; do not type the unit.

Note to self: Cmax recorded for NCCCC[C@@H]1NC(=O)[C@@H](Cc2c[nH]c3ccccc23)NC(=O)[C@H](c2ccccc2)NC(=O)[C@@H]2C[C@@H](OC(=O)NCCN)CN2C(=O)[C@H](Cc2ccccc2)NC(=O)[C@H](Cc2ccc(OCc3ccccc3)cc2)NC1=O [Pasireotide] (cyclo([Hyp]([CO-Ethylenediamine])[Phg][dW]KY(Bn)F)) was 4.71

----------
# Experiment: Plasma pharmacokinetics after a single subcutaneous dose in healthy volunteers
# Type: in vivo, human
# Condition Parameters: male, human, plasma, sc, 200 ug
*1 amine or outer side, *2 acyl side, *3 side chain or, on linkers, in order; H or OH if unused. Where a SMILES comes first, the peptide text is derived from it. Side-chain parts run from the residue outwards. [ ]: non-standard residue; d: D form. The star is where a group is joined. Ethylenediamine = C(CN[*:2])N[*:1]; Hyp = O=C(O)[C@@H]1C[C@@H](O)CN1; Phg = N[C@H](C(=O)O)c1ccccc1; CO = O=C([*:1])[*:2]; Bn = c1ccc(C*)cc1
Endpoint Name: AUC(0-t) (ng·h/mL)
Value expressed in ng·h/mL; do not type the unit.

Note to self: AUC(0-t) recorded for NCCCC[C@@H]1NC(=O)[C@@H](Cc2c[nH]c3ccccc23)NC(=O)[C@H](c2ccccc2)NC(=O)[C@@H]2C[C@@H](OC(=O)NCCN)CN2C(=O)[C@H](Cc2ccccc2)NC(=O)[C@H](Cc2ccc(OCc3ccccc3)cc2)NC1=O [Pasireotide] (cyclo([Hyp]([CO-Ethylenediamine])[Phg][dW]KY(Bn)F)) was 16.8

----------
# Experiment: Plasma pharmacokinetics after a single subcutaneous dose in healthy volunteers
# Format: in vivo, human
# Condition Parameters: male, human, plasma, sc, 1200 ug
*1 amine or outer side, *2 acyl side, *3 side chain or, on linkers, in order; H or OH if unused. Where a SMILES comes first, the peptide text is derived from it. Side-chain parts run from the residue outwards. [ ]: non-standard residue; d: D form. The star is where a group is joined. Ethylenediamine = C(CN[*:2])N[*:1]; Hyp = O=C(O)[C@@H]1C[C@@H](O)CN1; Phg = N[C@H](C(=O)O)c1ccccc1; CO = O=C([*:1])[*:2]; Bn = c1ccc(C*)cc1
Endpoint Name: AUC(0-t)

Note to self: AUC(0-t) recorded for NCCCC[C@@H]1NC(=O)[C@@H](Cc2c[nH]c3ccccc23)NC(=O)[C@H](c2ccccc2)NC(=O)[C@@H]2C[C@@H](OC(=O)NCCN)CN2C(=O)[C@H](Cc2ccccc2)NC(=O)[C@H](Cc2ccc(OCc3ccccc3)cc2)NC1=O [Pasireotide] (cyclo([Hyp]([CO-Ethylenediamine])[Phg][dW]KY(Bn)F)) was 90.4 ng·h/mL
